Let's look at some compounds and their measured MIC S. pyogenes macrolide-resistant.
- Test system: S. pyogenes
- assay summary: Broth dilution MIC determination (CLSI) against S. pyogenes strains
- Assay type: cell-based
- condition info: macrolide-resistant
Report as a plain number; the unit µg/mL is understood.

Use these answered entries as a reference point.
compound: CCC1OC(=O)C(C)C(=O)C(C)C(OC2OC(Cn3cc(-c4cccc(N)n4)nn3)CC(N(C)C)C2O)C(C)(OC)CC(C)CNC(C)C2N(CCCCn3cc(-c4cccc(N)c4)nn3)C(=O)OC12C (centres unmarked)
MIC S. pyogenes macrolide-resistant (µg/mL): 8
//
compound: CC[C@H]1OC(=O)[C@H](C)C(=O)[C@H](C)[C@@H](O[C@@H]2OC(Cn3cc(-c4ccccn4)nn3)CC(N(C)C)C2O)[C@](C)(OC)C[C@@H](C)CN[C@H](C)[C@H]2N(CCCCn3cc(-c4cccc(N)c4)nn3)C(=O)O[C@]12C (some centres unmarked)
MIC S. pyogenes macrolide-resistant (µg/mL): 1
//
compound: CCC1OC(=O)C(C)C(=O)C(C)C(OC2OC(COC(=O)c3ccccc3)C(O)C(N(C)C)C2O)C(C)(OC)CC(C)CNC(C)C2N(CCCCn3cc(-c4cccc(N)c4)nn3)C(=O)OC12C (centres unmarked)
MIC S. pyogenes macrolide-resistant (µg/mL): 32

Reported MIC S. pyogenes macrolide-resistant ( CCC1OC(=O)C(C)(F)C(=O)C(C)C(OC2OC(COC(=O)c3ccccc3)C(O)C(N(C)C)C2O)C(C)(OC)CC(C)CNC(C)C2N(CCCCn3cc(-c4cccc(N)c4)nn3)C(=O)OC12C (centres unmarked) ) = 32

###

- Tested on: E. coli
- assay summary: Broth dilution MIC determination (CLSI) against E. coli strains
- Type: cell-based
- condition info: Escherichia coli, ATCC25922, ATCC25922; read-out: MIC E. coli ATCC25922
Let's look at some molecules and their measured MIC.
Report as a plain number; the unit µg/mL is understood.

molecule: CC[C@H]1OC(=O)[C@H](C)C(=O)[C@H](C)[C@@H](O[C@@H]2OC(CNC(=O)c3ccccn3)CC(N(C)C)C2O)[C@](C)(OC)C[C@@H](C)CN[C@H](C)[C@H]2N(CCCCn3cc(-c4cccc(N)c4)nn3)C(=O)O[C@]12C (stereo partly drawn)
measured endpoint: MIC
val: 16
--
molecule: CC[C@H]1OC(=O)[C@H](C)C(=O)[C@H](C)[C@@H](O[C@@H]2OC(CNS(=O)(=O)c3cccnc3)CC(N(C)C)C2O)[C@](C)(OC)C[C@@H](C)CN[C@H](C)[C@H]2N(CCCCn3cc(-c4cccc(N)c4)nn3)C(=O)O[C@]12C (stereo partly drawn)
measured endpoint: MIC
val: 32
--
molecule: CC[C@H]1OC(=O)[C@H](C)C(=O)[C@H](C)[C@@H](O[C@@H]2OC(Cn3cc(-c4cnc(N)s4)nn3)CC(N(C)C)C2O)[C@](C)(OC)C[C@@H](C)CN[C@H](C)[C@H]2N(CCCCn3cc(-c4cccc(N)c4)nn3)C(=O)O[C@]12C (stereo partly drawn)
measured endpoint: MIC
val: 32

Reported MIC ( C=CCOC(=O)NCC1CC(N(C)C)C(O)[C@H](O[C@@H]2[C@@H](C)C(=O)[C@@H](C)C(=O)O[C@H](CC)[C@@]3(C)OC(=O)N(CCCCn4cc(-c5cccc(N)c5)nn4)[C@@H]3[C@@H](C)NC[C@H](C)C[C@@]2(C)OC)O1 (stereo partly drawn) ) = 16

Reported MIC ( CC[C@H]1OC(=O)[C@H](C)C(=O)[C@H](C)[C@@H](O[C@@H]2OC(CNC(=O)c3ccccc3)CC(N(C)C)C2O)[C@](C)(OC)C[C@@H](C)CN[C@H](C)[C@H]2N(CCCCn3cc(-c4cccc(N)c4)nn3)C(=O)O[C@]12C (stereo partly drawn) ) = 16

###

- Tested on: E. faecalis
- assay summary: Broth dilution MIC determination (CLSI) against E. faecalis strains
- Format: cell-based
- condition info: ATCC29212, Strain No. MP-24
measured endpoint: MIC E. faecalis ATCC29212

Use these answered entries as a reference point.
compound: CCC1OC(=O)C(C)C(=O)C(C)C(OC2OC(C)CC(NCC(=O)O)C2O)C(C)(OC)CC(C)CNC(C)C2N(CCCCn3cc(-c4cccc(N)c4)nn3)C(=O)OC12C (stereo not shown) [FSM-120368]
val: >64 µg/mL

compound: CCC1OC(=O)C(C)C(=O)C(C)C(OC2OC(C)CC(n3cccc3)C2O)C(C)(OC)CC(C)CNC(C)C2N(CCCCn3cc(-c4cccc(N)c4)nn3)C(=O)OC12C (stereo not shown) [FSM-120362]
val: 64 µg/mL

compound: CCC1OC(=O)C(C)C(=O)C(C)C(OC2OC(C)CC(n3ccnc3)C2O)C(C)(OC)CC(C)CNC(C)C2N(CCCCn3cc(-c4cccc(N)c4)nn3)C(=O)OC12C (stereo not shown) [FSM-120394]
val: 4 µg/mL

compound: CCC1OC(=O)C(C)C(=O)C(C)C(OC2OC(CNCc3ccc(F)cc3)CC(N(C)C)C2O)C(C)(OC)CC(C)CNC(C)C2N(CCCCn3cc(-c4cccc(N)c4)nn3)C(=O)OC12C (stereo not shown) [FSM-120391]
val: 1 µg/mL

Reported MIC E. faecalis ATCC29212 ( CCC1OC(=O)C(C)C(=O)C(C)C(OC2OC(C)CC(N3CCOCC3)C2O)C(C)(OC)CC(C)CNC(C)C2N(CCCCn3cc(-c4cccc(N)c4)nn3)C(=O)OC12C (stereo not shown) [FSM-120367] ) = 64 µg/mL

Reported MIC E. faecalis ATCC29212 ( C=CCOCC1CC(N(C)C)C(O)C(OC2C(C)C(=O)C(C)C(=O)OC(CC)C3(C)OC(=O)N(CCCCn4cc(-c5cccc(N)c5)nn4)C3C(C)NCC(C)CC2(C)OC)O1 (stereo not shown) [FSM-120383] ) = 8 µg/mL

Reported MIC E. faecalis ATCC29212 ( CCC1OC(=O)C(C)C(=O)C(C)C(OC2OC(C)CC(NCC#N)C2O)C(C)(OC)CC(C)CNC(C)C2N(CCCCn3cc(-c4cccc(N)c4)nn3)C(=O)OC12C (stereo not shown) [FSM-120369] ) = 4 µg/mL

###

- System: P. aeruginosa
- assay summary: Broth dilution MIC determination (CLSI) against P. aeruginosa strains
- Type: cell-based
- condition info: P. aeruginosa PAO1:mex, strain MP-8 (Table N2)
Let's look at some compounds and their measured MIC.
Report as a plain number; the unit µg/mL is understood.

compound: CCC1OC(=O)C(C)C(=O)C(C)C(OC2OC(C)CC(N(C)CC#N)C2O)C(C)(OC)CC(C)CNC(C)C2N(CCCCn3cc(-c4cccc(N)c4)nn3)C(=O)OC12C (centres unmarked) [FSM-120371]
MIC / µg/mL: 32

// below: MIC requested for another compound
Reported MIC ( CCC1OC(=O)C(C)C(=O)C(C)C(OC2OC(C)CC(N(C)Cc3cccnc3)C2O)C(C)(OC)CC(C)CNC(C)C2N(CCCCn3cc(-c4cccc(N)c4)nn3)C(=O)OC12C (centres unmarked) [FSM-120385] ) = 32

###

Let's look at some compounds and their measured MIC S. aureus ATCC29213.
- Test system: S. aureus
- assay summary: Broth dilution MIC determination (CLSI) against S. aureus strains
- Format: cell-based
- condition info: ATCC29213, Strain No. MP-12

Use these answered entries as a reference point.
compound: CCC1OC(=O)C(C)C(=O)C(C)C(OC2OC(CNCc3ccc(F)cc3)CC(N(C)C)C2O)C(C)(OC)CC(C)CNC(C)C2N(CCCCn3cc(-c4cccc(N)c4)nn3)C(=O)OC12C (stereo not drawn) [FSM-120391]
MIC S. aureus ATCC29213: 4 µg/mL
--
compound: CCC1OC(=O)C(C)C(=O)C(C)C(OC2OC(C)CC(n3cccc3)C2O)C(C)(OC)CC(C)CNC(C)C2N(CCCCn3cc(-c4cccc(N)c4)nn3)C(=O)OC12C (stereo not drawn) [FSM-120362]
MIC S. aureus ATCC29213: >64 µg/mL

// below: MIC S. aureus ATCC29213 requested for another compound
Reported MIC S. aureus ATCC29213 ( CCC1OC(=O)C(C)C(=O)C(C)C(OC2OC(C)CC(NCC#N)C2O)C(C)(OC)CC(C)CNC(C)C2N(CCCCn3cc(-c4cccc(N)c4)nn3)C(=O)OC12C (stereo not drawn) [FSM-120369] ) = 32 µg/mL

###

- Tested on: P. aeruginosa
- assay summary: Broth dilution MIC determination (CLSI) against P. aeruginosa strains
- Format: cell-based
- condition info: Pseudomonas aeruginosa, ATCC27853; read-out: MIC P. aeruginosa ATCC27853
measured endpoint: MIC

Use these answered entries as a reference point.
molecule: C=CCOC(=O)NCC1CC(N(C)C)C(O)[C@H](O[C@@H]2[C@@H](C)C(=O)[C@@H](C)C(=O)O[C@H](CC)[C@@]3(C)OC(=O)N(CCCCn4cc(-c5cccc(N)c5)nn4)[C@@H]3[C@@H](C)NC[C@H](C)C[C@@]2(C)OC)O1 (stereo partly shown) [FSM-21795]
MIC: 32 µg/mL

molecule: CC[C@H]1OC(=O)[C@H](C)C(=O)[C@H](C)[C@@H](O[C@@H]2OC(Cn3cc(-c4cnc(N)s4)nn3)CC(N(C)C)C2O)[C@](C)(OC)C[C@@H](C)CN[C@H](C)[C@H]2N(CCCCn3cc(-c4cccc(N)c4)nn3)C(=O)O[C@]12C (stereo partly shown) [FSM-22125]
MIC: > 32 µg/mL

Reported MIC ( CC[C@H]1OC(=O)[C@H](C)C(=O)[C@H](C)[C@@H](O[C@@H]2OC(CN)CC(N(C)C)C2O)[C@](C)(OC)C[C@@H](C)CN[C@H](C)[C@H]2N(CCCCn3cc(-c4cccc(N)c4)nn3)C(=O)O[C@]12C (stereo partly shown) [FSM-21700] ) = > 32 µg/mL

Reported MIC ( CC[C@H]1OC(=O)[C@H](C)C(=O)[C@H](C)[C@@H](O[C@@H]2OC(CNC(=O)c3cnccn3)CC(N(C)C)C2O)[C@](C)(OC)C[C@@H](C)CN[C@H](C)[C@H]2N(CCCCn3cc(-c4cccc(N)c4)nn3)C(=O)O[C@]12C (stereo partly shown) [FSM-21881] ) = > 32 µg/mL
